- TARGET DESC: CCR4 (Homo sapiens, UniProt P51679)
- Construct: CEM Cells Endogenous Express CCR4; endogenous in cells; host or cells: CEM cells
- Sequence (P51679 whole entry): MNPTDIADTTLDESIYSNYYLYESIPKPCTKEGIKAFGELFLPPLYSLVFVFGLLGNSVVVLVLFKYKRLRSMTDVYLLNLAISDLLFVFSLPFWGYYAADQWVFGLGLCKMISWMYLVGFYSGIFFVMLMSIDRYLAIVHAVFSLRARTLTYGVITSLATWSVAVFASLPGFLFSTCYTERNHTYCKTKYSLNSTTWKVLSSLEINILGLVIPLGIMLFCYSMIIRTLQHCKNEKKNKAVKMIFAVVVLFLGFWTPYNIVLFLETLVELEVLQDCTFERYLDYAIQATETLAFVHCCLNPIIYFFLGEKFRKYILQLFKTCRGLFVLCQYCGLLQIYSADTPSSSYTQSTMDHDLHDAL
- TEST: CEM cell chemotaxis (migration) assay to CCL22 (MDC) in 100% Fetal Bovine Serum (FBS)
- Type: cell-based
- CONDITIONS: CEM cells in 100% FBS with 1% HEPEs; recombinant human CCL22 0.1 nM; 37° C. 60 minutes
pIC50: −log10 of the molar value.
TEST READOUT: pIC50

The following compounds have reported results that may help.
[
  {
    "COMPOUND": "CC(C)Oc1cnc(N2CCN(C(=O)[C@H]3CCCN3)CC2)nc1N[C@H](C)c1ccc(Cl)cc1Cl [Example 1.174]",
    "pIC50": "> 7.00"
  },
  {
    "COMPOUND": "CCOc1cnc(N2CCN(C(=O)[C@H]3CCN(C)C3)CC2)nc1N[C@H](C)c1ccc(Cl)cc1Cl [Example 1.184]",
    "pIC50": "> 7.00"
  },
  {
    "COMPOUND": "C[C@@H](Nc1nc(N2CC[C@H](NC(=O)[C@H]3CCCN3)C2)ncc1Cl)c1ccc(Cl)cc1Cl [Example 1.029]",
    "pIC50": "> 7.00"
  },
  {
    "COMPOUND": "C[C@@H](Nc1nc(N2CCC(O[C@H]3CCNC3)CC2)ncc1Cl)c1ccc(Cl)cc1Cl [Example 1.230]",
    "pIC50": "> 7.00"
  },
  {
    "COMPOUND": "C[C@@H](Nc1nc(N2CCN(C(=O)CCN3CCCC3=O)CC2)ncc1Cl)c1ccc(Cl)cc1Cl [Example 1.191]",
    "pIC50": "6.00 to 7.00"
  },
  {
    "COMPOUND": "C[C@@H](Nc1nc(N2CCN(S(=O)(=O)CCN(C)C)CC2)ncc1Cl)c1ccc(Cl)cc1Cl [Example 1.016]",
    "pIC50": "6.00 to 7.00"
  },
  {
    "COMPOUND": "C[C@@H](Nc1nc(N2CCN(C(=O)[C@H]3CCN(C)C3)CC2)ncc1C(N)=O)c1ccc(Cl)cc1Cl [Example 1.236]",
    "pIC50": "> 7.00"
  },
  {
    "COMPOUND": "C[C@@H](Nc1nc(C2=CCN(C(=O)[C@H]3CCC(=O)N3)CC2)ncc1Cl)c1ccc(Cl)cc1Cl [Example 1.162]",
    "pIC50": "> 7.00"
  },
  {
    "COMPOUND": "C[C@@H]1CN(c2ncc(Cl)c(N[C@H](C)c3ccc(Cl)cc3Cl)n2)CCN1C(=O)[C@H]1CCC(=O)N1 [Example 1.112]",
    "pIC50": "> 7.00"
  },
  {
    "COMPOUND": "CNC1CCN(C(=O)N2CCN(c3ncc(Cl)c(N[C@H](C)c4ccc(Cl)cc4Cl)n3)CC2)C1 (some centres unmarked) [Example 1.005]",
    "pIC50": "> 7.00"
  }
]

Entry C[C@@H](Nc1nc(N2CCN(C(=O)[C@H]3CCC(=O)N3)CC2)ncc1Cl)c1ccccn1 [Example 1.256] , pIC50 reported as < 6.00

Entry COc1cnc(N2CCN(C(=O)[C@H]3CCN(C)C3)CC2)nc1N[C@H](C)c1ccc(Cl)cc1Cl [Example 1.189] , pIC50 reported as > 7.00

Entry C[C@@H](Nc1nc(N2CCC(C3CCCN(CCC(=O)O)C3)CC2)ncc1Cl)c1ccc(Cl)cc1Cl (some centres unmarked) [Example 1.035] , pIC50 reported as > 7.00

Entry C[C@@H](Nc1nc(N2CCN(C(=O)[C@@H]3CNCCO3)CC2)ncc1Cl)c1ccc(Cl)cc1Cl [Example 1.145] , pIC50 reported as > 7.00

Entry C[C@@H](Nc1nc(N2CCN(C3CCCN(CCC(=O)O)C3)CC2)ncc1Cl)c1ccc(Cl)cc1Cl (some centres unmarked) [Example 1.054] , pIC50 reported as > 7.00

Entry C[C@@H](Nc1nc(N2CCN(C(=O)[C@@H]3CNCC(=O)N3)CC2)ncc1Cl)c1ccc(Cl)cc1Cl [Example 1.229] , pIC50 reported as < 6.00

Entry C[C@@H](Nc1nc(N2CCN(C(=O)[C@H]3CCC(=O)N3)CC2)ncc1N)c1ccc(Cl)cc1Cl [Example 1.095] , pIC50 reported as > 7.00
